TARGET OR SYSTEM: GES-1 (Guiana extended-spectrum β-lactamase 1) (Klebsiella pneumoniae, UniProt Q9KJY7)
Construct: pOPIN-F, expressed in SoluBL21 (DE3) E. coli
Sequence (Q9KJY7 18-287): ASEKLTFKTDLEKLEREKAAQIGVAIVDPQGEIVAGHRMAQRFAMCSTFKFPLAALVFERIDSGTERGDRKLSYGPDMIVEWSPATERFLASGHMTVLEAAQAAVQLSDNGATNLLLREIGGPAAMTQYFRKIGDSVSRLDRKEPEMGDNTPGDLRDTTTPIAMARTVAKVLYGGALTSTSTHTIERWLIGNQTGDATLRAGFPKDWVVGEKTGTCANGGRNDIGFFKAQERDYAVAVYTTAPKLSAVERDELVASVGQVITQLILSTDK
ASSAY COMMENT: ([…] Å), mass spectrometry; IC50 by nitrocefin hydrolysis, […] min pre-incubation
Format: biochemical
MEASURE NAME: pIC50
// scale note: pIC50 = -log10(conc_M); give the bare number

Task item: For the molecule shown here, C[n+]1ccn(C[C@@]2(C)[C@H](C(=O)O)N3C(=O)C[C@H]3S2(=O)=O)n1 , give the reported pIC50.
Reply: 6.97

// data source = paper PMC12643063
